Experiment: Liver microsomes metabolic stability assay, mouse
Type: in vitro ADME
Conditions: male, mouse liver microsomes 0.5 mg/mL, 37° C.
Items are presented alongside their recorded microsomal CLint at 2 μM.
Entry rule: numbers only, all in µL/min/mg.

Example compounds with recorded microsomal CLint at 2 μM:
substance-smiles: COc1cc2nc(-c3cnn4ccc(N5CCC[C@@H]5c5cc(F)ccc5F)nc34)[nH]c2cc1C#N
readout-kind: microsomal CLint at 2 μM
endpoint-value: 16.4
//
substance-smiles: CS(=O)(=O)c1cc2nc(-c3cnn4ccc(N5CCC[C@@H]5c5cc(F)ccc5F)nc34)[nH]c2cc1C(N)=O
readout-kind: microsomal CLint at 2 μM
endpoint-value: 97.6
//
substance-smiles: C[C@@H](CO)c1nnc(-c2cnn3ccc(N4CCC[C@@H]4c4cc(F)ccc4F)nc23)[nH]1
readout-kind: microsomal CLint at 2 μM
endpoint-value: 41.4

Which microsomal CLint at 2 μM reading was recorded for the compound Fc1ccc(F)c([C@H]2CCCN2c2ccn3ncc(-c4nc5cnccc5[nH]4)c3n2)c1 ?
24

* * *

Items are presented alongside their recorded microsomal CLint at 2 μM.
Test: Liver microsomes metabolic stability assay, human
Type: in vitro ADME
Conditions: human liver microsomes 0.5 mg/mL, 37° C.
Entry rule: numbers only, all in µL/min/mg.

Example compounds with recorded microsomal CLint at 2 μM:
substance-smiles: N#Cc1cc2[nH]c(-c3cnn4ccc(N5CCC[C@@H]5c5cc(F)ccc5F)nc34)nc2cc1F
readout-unit: µL/min/mg
microsomal CLint at 2 μM: 94.1
//
substance-smiles: Fc1ccc(F)c([C@H]2CCCN2c2ccn3ncc(-c4nc5cc6c(cc5[nH]4)OCCO6)c3n2)c1
readout-unit: µL/min/mg
microsomal CLint at 2 μM: 37
//
substance-smiles: N#Cc1cc2nc(-c3cnn4ccc(N5CCC[C@@H]5c5cc(F)ccc5F)nc34)[nH]c2cc1C#N
readout-unit: µL/min/mg
microsomal CLint at 2 μM: 1.2

Let us examine a further case.
Which microsomal CLint at 2 μM reading was recorded for the compound Fc1ccc(F)c([C@H]2CCCN2c2ccn3ncc(-c4nc5cc(Cl)c(OC(F)(F)F)cc5[nH]4)c3n2)c1 ?
20.4

* * *

Biological target: TrkA kinase (Homo sapiens)
Sequence (P04629 33-796): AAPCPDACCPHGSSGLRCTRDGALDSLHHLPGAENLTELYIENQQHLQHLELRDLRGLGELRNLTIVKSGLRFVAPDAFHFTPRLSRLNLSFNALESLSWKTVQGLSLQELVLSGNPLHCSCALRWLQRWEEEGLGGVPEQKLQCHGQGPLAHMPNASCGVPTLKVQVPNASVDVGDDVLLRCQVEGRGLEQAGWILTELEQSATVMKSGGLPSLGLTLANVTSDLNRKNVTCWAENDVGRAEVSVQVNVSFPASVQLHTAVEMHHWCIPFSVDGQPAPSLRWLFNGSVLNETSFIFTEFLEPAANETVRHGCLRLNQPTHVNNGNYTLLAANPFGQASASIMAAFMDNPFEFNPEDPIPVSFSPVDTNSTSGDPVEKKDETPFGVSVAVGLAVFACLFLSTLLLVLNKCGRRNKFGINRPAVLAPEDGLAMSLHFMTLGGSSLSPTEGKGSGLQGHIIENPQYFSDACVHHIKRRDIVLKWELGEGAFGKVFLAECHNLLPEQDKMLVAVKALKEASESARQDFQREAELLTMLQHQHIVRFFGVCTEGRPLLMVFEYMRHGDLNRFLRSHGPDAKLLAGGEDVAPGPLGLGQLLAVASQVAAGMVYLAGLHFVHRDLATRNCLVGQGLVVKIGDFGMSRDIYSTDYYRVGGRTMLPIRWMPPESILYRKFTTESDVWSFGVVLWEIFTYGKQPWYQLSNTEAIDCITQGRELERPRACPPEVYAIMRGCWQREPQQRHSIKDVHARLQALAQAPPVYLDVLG
Assay: TrkA kinase assay (mobility shift assay)
Format: biochemical
Settings: numeric values; read-out: Trk A Kinase IC50
Items are presented alongside their recorded pIC50.
Here pIC50 is given on a logarithmic scale as minus log10 of the concentration in mol/L.

Example compounds with recorded pIC50:
substance-smiles: Oc1ncnc2nc(-c3cnn4ccc(N5CCC[C@@H]5c5cc(F)ccc5F)nc34)[nH]c12
assay-target: TrkA kinase (Homo sapiens)
pIC50: 9.11
--
substance-smiles: Fc1ccc(F)c([C@H]2CCCN2c2ccn3ncc(-c4nc5cnncc5[nH]4)c3n2)c1
assay-target: TrkA kinase (Homo sapiens)
pIC50: 9.18
--
substance-smiles: Fc1ccc(F)c([C@H]2CCCN2c2ccn3ncc(-c4nnc(-c5ccc6[nH]ccc6c5)[nH]4)c3n2)c1
assay-target: TrkA kinase (Homo sapiens)
pIC50: 8.58
--
substance-smiles: COCCOc1cc2nc(-c3cnn4ccc(N5CCC[C@@H]5c5cc(F)ccc5F)nc34)[nH]c2cc1OCCOC
assay-target: TrkA kinase (Homo sapiens)
pIC50: 9.40
--
substance-smiles: O[C@H]1CCn2nc(-c3cnn4ccc(N5CCC[C@@H]5c5cc(F)ccc5F)nc34)nc2C1
assay-target: TrkA kinase (Homo sapiens)
pIC50: 8.18
--
substance-smiles: Fc1ccc(F)c([C@H]2CCCN2c2ccn3ncc(-c4nc5ccc(F)cc5[nH]4)c3n2)c1
assay-target: TrkA kinase (Homo sapiens)
pIC50: 9.02

Let us examine a further case.
Which pIC50 reading was recorded for the compound OC1CCN(c2cc(-c3nnc(-c4cnn5ccc(N6CCC[C@@H]6c6cc(F)ccc6F)nc45)[nH]3)ccn2)CC1 ?
9.37
